- Test system: Mycobacterium avium
- measurementDescription: Antimycobacterial activity against Mycobacterium avium CNCTC My 330/88 after 14 days by micromethod
- Type: functional
- assayContext: CNCTC My 330/88, 336 h
attributeMeasured: log10 MIC (log10 of the value in µM)
Annotation: log10 of MIC, µM basis.

The following molecules each have a reported value; give each one's log10 MIC.
1. COc1ccc(-n2nnnc2SCc2cc(N)cc(N)c2)cc1
2. O=[N+]([O-])c1cc(CS(=O)(=O)c2nnnn2C2CCCCC2)cc([N+](=O)[O-])c1
3. COc1ccc(-n2nnnc2OCc2cc([N+](=O)[O-])cc([N+](=O)[O-])c2)cc1
4. COc1ccc(-n2nnnc2SCc2cc([N+](=O)[O-])cc([N+](=O)[O-])c2)cc1

Result:
[3.00, 1.51, 1.20, 1.20]

The following molecules each have a reported value; give each one's log10 MIC.
1. COc1ccc(-n2nnnc2[Se]Cc2cc([N+](=O)[O-])cc([N+](=O)[O-])c2)cc1
2. COC(=O)c1cccc(-n2nnnc2SCc2cc([N+](=O)[O-])cc([N+](=O)[O-])c2)c1
3. O=[N+]([O-])c1cc(CSCc2ccccc2)cc([N+](=O)[O-])c1
4. COc1cc(-n2nnnc2OCc2cc([N+](=O)[O-])cc([N+](=O)[O-])c2)cc(OC)c1OC

Result:
[1.51, 2.40, 2.10, 1.51]

Ask: Requested read-out: log10 MIC. Entry: O=C(O)c1cccc(-n2nnnc2SCc2cc([N+](=O)[O-])cc([N+](=O)[O-])c2)c1
Result: 3.00

* * *

- measurementDescription: Cytotoxicity against human HuH7 cells assessed as cell viability at 30 uM after 48 hrs by MTT assay
- Type: cell-based, Huh-7
- assayContext: read-out: Activity
attributeMeasured: viability at 48 h, 30 µM (%)
One number for each entry, in %.

The cases that follow already have their viability at 48 h, 30 µM on record.
O=[N+]([O-])c1cc(CSc2nnnn2Cc2ccccc2)cc([N+](=O)[O-])c1 ... 112
O=[N+]([O-])c1cc(C[Se]c2nnnn2C2CCCCC2)cc([N+](=O)[O-])c1 ... 125

Field: next molecule
Ask: Requested read-out: viability at 48 h, 30 µM. Entry: COc1ccc(-n2nnnc2[Se]Cc2cc([N+](=O)[O-])cc([N+](=O)[O-])c2)cc1
Result: 72

* * *

- measurementDescription: Cytotoxicity against human HeLa cells assessed as cell viability at 30 uM after 48 hrs by MTT assay
- Format: cell-based
- assayContext: read-out: Activity
attributeMeasured: viability at 48 h, 30 µM (%)
Give bare numbers, in %.

The cases that follow already have their viability at 48 h, 30 µM on record.
O=[N+]([O-])c1cc(CSc2nnnn2-c2ccc(Cl)c(Cl)c2)cc([N+](=O)[O-])c1 ... 67
O=[N+]([O-])c1ccc(CSc2nnnn2C2CCCCC2)c([N+](=O)[O-])c1 ... 61
COc1ccc(-n2nnnc2[Se]Cc2cc([N+](=O)[O-])cc([N+](=O)[O-])c2)cc1 ... 78

The following compounds each have a reported value; give each one's viability at 48 h, 30 µM.
1. O=[N+]([O-])c1ccc(C[Se]c2nnnn2C2CCCCC2)c([N+](=O)[O-])c1
2. O=[N+]([O-])c1cc(C[S+]([O-])c2nnnn2C2CCCCC2)cc([N+](=O)[O-])c1 (stereo unspecified)
3. O=[N+]([O-])c1cc(CSc2nnnn2C2CCCCC2)cc([N+](=O)[O-])c1

Result:
1. 32
2. 62
3. 84
